Tested on: KM12 (Colorectal Carcinoma);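 also: after 72 h of two-drug dosing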
Assay: Bliss excess, mean over the matrix (fraction); higher = more synergy
For each entry below, report its Bliss excess value.
Reply with the value as a number alone.

Problem: Which Bliss excess value is on record for CC1(C)CCC(CN2CCN(c3ccc(C(=O)NS(=O)(=O)c4ccc(NCC5CCOCC5)c([N+](=O)[O-])c4)c(Oc4cnc5[nH]ccc5c4)c3)CC2)=C(c2ccc(Cl)cc2)C1 [Venetoclax] + COc1cc(Nc2ncc3c(n2)-c2ccc(Cl)cc2C(c2c(F)cccc2OC)=NC3)ccc1C(=O)O [Alisertib] (first compound max 1 µM, 7x7, partner max 10 µM) ?
Result: -0.0669

Problem: Moving on to COc1cccc(OCCCN)c1-c1cc(Nc2cnc(C#N)cn2)n[nH]1 [Prexasertib] + CN(C)CCCOc1ccc(-c2ccc3ncc4c(c3c2)n(C2CCOCC2)c(=O)n4C)cn1 [AZD0156] (first compound max 1 µM, 7x7, partner max 1 µM)
Result: -0.0095

Problem: Param item: CN(C)CCCOc1ccc(-c2ccc3ncc4c(c3c2)n(C2CCOCC2)c(=O)n4C)cn1 [AZD0156] + C[C@@H]1COCCN1C2=NC(=NC(=C2)C3(CC3)[S@](=N)(=O)C)C4=C5C=CNC5=NC=C4 [AZD6738] (first compound max 1 µM, 7x7, partner max 10 µM)
Result: 0.0161

Problem: Do the same for C=CCn1c(=O)c2cnc(Nc3ccc(N4CCN(C)CC4)cc3)nc2n1-c1cccc(C(C)(C)O)n1 [AZD1775] + C1CN(CCC1(C(=O)N[C@@H](CCO)C2=CC=C(C=C2)Cl)N)C3=NC=NC4=C3C=CN4 [Capivasertib] (first compound max 3 µM, partner max 3 µM) please
Result: -0.0162

Problem: Please do the same for CC1(C)CCC(CN2CCN(c3ccc(C(=O)NS(=O)(=O)c4ccc(NCC5CCOCC5)c([N+](=O)[O-])c4)c(Oc4cnc5[nH]ccc5c4)c3)CC2)=C(c2ccc(Cl)cc2)C1 [Venetoclax] + Cc1cc2ncnn2cc1Nc1ncc2c(n1)n(C1CCOCC1)c(=O)n2C [AZD7648] (first compound max 1 µM, 7x7, partner max 10 µM) as well.
Result: -0.0129

Problem: And then CN(CCO)CC[C@H](CSc1ccccc1)Nc1ccc(S(=O)(=O)NC(=O)c2ccc(N3CCC([C@@H](O)c4ccccc4-c4ccc(Cl)cc4)CC3)cc2)cc1S(=O)(=O)C(F)(F)F [AZD4320] + Cc1cc2ncnn2cc1Nc1ncc2c(n1)n(C1CCOCC1)c(=O)n2C [AZD7648] (first compound max 1 µM, 7x7, partner max 10 µM) , what is it?
Result: -0.0234

Problem: Same thing, different compound: COc1cccc(OCCCN)c1-c1cc(Nc2cnc(C#N)cn2)n[nH]1 [Prexasertib] + O=C(c1cc(Cc2n[nH]c(=O)c3ccccc23)ccc1F)N1CCN(C(=O)C2CC2)CC1 [Olaparib] (first compound max 1 µM, 7x7, partner max 10 µM)
Result: -0.0192
